Biological target: T1, EsCas13d, nuclease-dead (Eubacterium siraeum, UniProt B0MS50, R295A;H300A;R849A;H854A)
T1 sequence: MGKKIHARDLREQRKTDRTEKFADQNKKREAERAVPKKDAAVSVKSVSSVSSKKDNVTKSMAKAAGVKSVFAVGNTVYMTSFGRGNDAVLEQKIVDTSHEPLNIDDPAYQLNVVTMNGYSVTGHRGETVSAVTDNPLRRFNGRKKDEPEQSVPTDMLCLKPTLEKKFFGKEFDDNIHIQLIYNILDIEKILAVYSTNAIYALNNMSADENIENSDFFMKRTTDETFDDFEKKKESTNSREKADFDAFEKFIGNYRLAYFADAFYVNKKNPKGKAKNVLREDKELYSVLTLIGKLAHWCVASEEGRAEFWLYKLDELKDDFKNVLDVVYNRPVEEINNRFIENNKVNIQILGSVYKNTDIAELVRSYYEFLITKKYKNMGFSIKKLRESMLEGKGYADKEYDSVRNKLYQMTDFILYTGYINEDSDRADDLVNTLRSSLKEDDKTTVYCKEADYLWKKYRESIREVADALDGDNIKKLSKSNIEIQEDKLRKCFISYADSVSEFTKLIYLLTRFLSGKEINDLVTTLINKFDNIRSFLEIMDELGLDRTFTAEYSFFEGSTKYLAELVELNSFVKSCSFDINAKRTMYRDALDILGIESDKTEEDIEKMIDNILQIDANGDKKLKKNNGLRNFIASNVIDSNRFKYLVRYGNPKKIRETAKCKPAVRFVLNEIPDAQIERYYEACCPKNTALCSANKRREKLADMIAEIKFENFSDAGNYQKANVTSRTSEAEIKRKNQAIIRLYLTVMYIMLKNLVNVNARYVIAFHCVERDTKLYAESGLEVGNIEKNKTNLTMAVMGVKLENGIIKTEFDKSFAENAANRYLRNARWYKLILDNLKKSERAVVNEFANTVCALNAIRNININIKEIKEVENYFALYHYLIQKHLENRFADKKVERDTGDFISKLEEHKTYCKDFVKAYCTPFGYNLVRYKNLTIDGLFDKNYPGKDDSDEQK
Assay: crRNA (strand 1, pre-loaded); Mg2+; 40 mM Tris-HCl pH 7.5, 150 mM NaCl, 6 mM MgCl2, 1 mM DTT, 0.1% Tween-20, 0.2 mg/ml BSA; 25 C; 10 min per concentration, then washed
Settings: tags: His6-TwinStrep-SUMO cleaved; N-terminal SNAP kept (SNAP-Surface 488); label: 3' end held by stalled T7 RNA polymerase
Kindly state pKd for each of the entries shown.
Give bare numbers, as −log10 of the molar value.

* target 2 MT 5'PFS ACC 3'PFS AAA (mixed) RNA 1: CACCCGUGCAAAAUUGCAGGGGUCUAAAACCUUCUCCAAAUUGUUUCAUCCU RNA 2: GGGAAUGGAUCCACAUCUACGAAUUCACCAGGAUGAAACAAUUUGGAGAAGAAAAGAUCGGAAGAGCACACGU | 8.03

List reported pKd for each of these binders:
1. target 3 A5G,A11G (mixed) RNA 1: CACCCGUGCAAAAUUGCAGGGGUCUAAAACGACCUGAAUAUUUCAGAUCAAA RNA 2: GGGAAUGGAUCCACAUCUACGAAUUCGUUUUUGAUCUGAAGUAUUCGGGUCUGCAGAUCGGAAGAGCACACGU
2. target 1 MT 5'PFS UGG 3'PFS UCA (mixed) RNA 1: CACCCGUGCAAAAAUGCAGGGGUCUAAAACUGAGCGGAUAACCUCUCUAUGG RNA 2: GGGAAUGGAUCCACAUCUACGAAUUCUGGCCAUAGAGAGGUUAUCCGCUCAUCAAGAUCGGAAGAGCACACGU
3. target 1 U8C,A9G (mixed) RNA 1: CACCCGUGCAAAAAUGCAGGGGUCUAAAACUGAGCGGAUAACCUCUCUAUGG RNA 2: GGGAAUGGAUCCACAUCUACGAAUUCGUACCAUAGAGAGGUUGCCCGCUCACCGAGAUCGGAAGAGCACACGU
4. target 3 insC 3' of 3,insG 3' of 2 (mixed) RNA 1: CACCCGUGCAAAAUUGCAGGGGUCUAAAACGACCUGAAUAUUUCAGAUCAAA RNA 2: GGGAAUGGAUCCACAUCUACGAAUUCGUUUUUGAUCUGAAAUAUUCAGGCUGCUGCAGAUCGGAAGAGCACACGU
5. target 1 insA 3' of 10,insG 3' of 7 (mixed) RNA 1: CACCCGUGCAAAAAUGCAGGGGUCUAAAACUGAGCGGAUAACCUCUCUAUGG RNA 2: GGGAAUGGAUCCACAUCUACGAAUUCGUACCAUAGAGAGGUUAAUCGCGCUCACCGAGAUCGGAAGAGCACACGU
6. target 1 A9C,G12A (mixed) RNA 1: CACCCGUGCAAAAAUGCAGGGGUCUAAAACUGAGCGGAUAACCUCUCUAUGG RNA 2: GGGAAUGGAUCCACAUCUACGAAUUCGUACCAUAGAGAGAUUCUCCGCUCACCGAGAUCGGAAGAGCACACGU
7. target 2 MT 5'PFS AUG 3'PFS UCU (mixed) RNA 1: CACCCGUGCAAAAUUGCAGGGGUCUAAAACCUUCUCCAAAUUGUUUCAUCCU RNA 2: GGGAAUGGAUCCACAUCUACGAAUUCAUGAGGAUGAAACAAUUUGGAGAAGUCUAGAUCGGAAGAGCACACGU

result:
7.13
7.15
7.87
7.97
7.91
7.78
7.76

Origin of measurements: paper PMC10786891
